This collection of values is drawn from patent US20260098054A1.

# Tested on: U87-MG cells
# experiment.notes: In vitro cytotoxicity assay (CCK-8) in U87-MG cells
# test.conditions: U87-MG (high αvβ3 integrin), 48 h incubation, fold of free DM1 activity
Record form. Attribute: cytotoxicity compared to free DM1 (IC50 compared within the same cell line). Fill in for each entry.
The answer is to be given in fold; state only the numeric part.

Asked: For the compound "COc1cc2cc(c1Cl)N(C)C(=O)C[C@H](OC(=O)[C@H](C)N(C)C(=O)CCSSCCn1cc3ccccc3c1SC(C)(C)[C@@H]1NC(=O)[C@@H](Cc3ccccc3)NC(=O)[C@H](CCC(=O)O)NC(=O)CNC(=O)[C@H](CCCNC(=N)N)NC1=O)[C@]1(C)O[C@H]1[C@H](C)[C@@H]1C[C@@](O)(NC(=O)O1)[C@H](OC)/C=C/C=C(\C)C2" , what cytotoxicity compared to free DM1 (IC50 compared within the same cell line) is on record?
Given back: 0.48

Asked: Same thing, different compound: "COc1cc2cc(c1Cl)N(C)C(=O)C[C@H](OC(=O)[C@H](C)N(C)C(=O)CCSc1c3ccccc3cn1CCCC[C@@H]1NC(=O)[C@@H](Cc3ccccc3)NC(=O)[C@H](CCC(=O)O)NC(=O)CNC(=O)[C@H](CCCNC(=N)N)NC1=O)[C@]1(C)O[C@H]1[C@H](C)[C@@H]1C[C@@](O)(NC(=O)O1)[C@H](OC)/C=C/C=C(\C)C2"
Given back: 0.49

Asked: Same thing, different compound: COc1cc2cc(c1Cl)N(C)C(=O)C[C@H](OC(=O)[C@H](C)N(C)C(=O)CCSc1c3ccccc3cn1CCCC[C@@H]1NC(=O)[C@@H](Cc3ccccc3)NC(=O)[C@H](CC(=O)O)NC(=O)CNC(=O)[C@H](CCCNC(=N)N)NC1=O)[C@]1(C)O[C@H]1[C@H](C)[C@@H]1C[C@@](O)(NC(=O)O1)[C@H](OC)/C=C/C=C(\C)C2 [PDC-1, OPA-c [RGDfK]-DM1]
Given back: 0.85

Asked: Same thing, different compound: "COc1cc2cc(c1Cl)N(C)C(=O)C[C@H](OC(=O)[C@H](C)N(C)C(=O)CCSSCCn1cc3ccccc3c1SC(C)(C)[C@@H]1NC(=O)[C@@H](Cc3ccccc3)NC(=O)[C@H](CC(=O)O)NC(=O)CNC(=O)[C@H](CCCNC(=N)N)NC1=O)[C@]1(C)O[C@H]1[C@H](C)[C@@H]1C[C@@](O)(NC(=O)O1)[C@H](OC)/C=C/C=C(\C)C2"
Given back: 5.95
